Tested on: ACHN renal
test details: NCI tumour cell line growth inhibition, 48 h
Documented TGI across a set of compounds
metric: TGI

>  <compound>
O=C(C(=O)c1cc2ccccc2[nH]1)c1cc2ccccc2[nH]1

>  <metric>
TGI

>  <experimental value>
> 347 µM

$$$$
>  <compound>
Cc1ccc2c(c1)SC1=Nc3sc4cc(C)ccc4[n+]3CN12

>  <metric>
TGI

>  <experimental value>
> 100 µM

$$$$
>  <compound>
CCn1cc2c(=O)n3ncn(-c4ccc(Br)cc4)c3nc2n1

>  <metric>
TGI

>  <experimental value>
> 100 µM

$$$$
>  <compound>
O=c1c2c(nc3n1CCS3)[nH]c1cc([N+](=O)[O-])ccc12

>  <metric>
TGI

>  <experimental value>
> 100 µM

$$$$
>  <compound>
O=C(CN(/C=C/C(=O)C(F)(F)F)c1ccc(Cl)cc1)c1ccc(Cl)cc1

>  <metric>
TGI

>  <experimental value>
20.7 µM

$$$$
>  <compound>
COC(=O)c1cc2c(=O)n(C)c3ccccc3n2c1C(=O)OC

>  <metric>
TGI

>  <experimental value>
> 100 µM

$$$$
>  <compound>
CSc1nc(-c2ccc(Cl)cc2)c(C#N)c(=O)n1C1OC(COC(C)=O)C(OC(C)=O)C(OC(C)=O)C1OC(C)=O (stereo not given)

>  <metric>
TGI

>  <experimental value>
> 100 µM

$$$$
>  <compound>
CO/C=C/C=C(\C#N)C(=O)OC

>  <metric>
TGI

>  <experimental value>
> 100 µM

$$$$
>  <compound>
Cc1ccc(C)n1-c1ccccc1C1C=Cn2c(=O)nnc3c(OC(C)C)c(OC(C)C)c(O)c1c32 (stereo not given)

>  <metric>
TGI

>  <experimental value>
> 100 µM

$$$$
>  <compound>
CCOC(=O)C(C(=O)OCC)=C1SC(=Nc2ccccc2)C(=Nc2ccccc2)N1c1ccccc1

>  <metric>
TGI

>  <experimental value>
> 100 µM

$$$$

====

As shown below, each of these compounds has a reported TGI value.
Test system: UACC-62 melanoma
test details: NCI tumour cell line growth inhibition, 48 h

>  <compound>
COC1CCC(OS(C)(=O)=O)C(CO)O1 (stereo unspecified)

>  <readout qualifier>
>

>  <TGI / µM>
100

$$$$
>  <compound>
Cc1cnc2n1S(=O)(=O)c1cc(C(=O)Nc3cccc4nsnc34)c(Cl)cc1S2

>  <readout qualifier>
=

>  <TGI / µM>
32.9

$$$$
>  <compound>
CC(C)C[C@H](NC(=O)CNC(=O)c1cc(Cl)ccc1Cl)B(O)O

>  <readout qualifier>
=

>  <TGI / µM>
0.0457

$$$$
>  <compound>
Cc1nc2sccn2c1C(=O)NN

>  <readout qualifier>
>

>  <TGI / µM>
100

$$$$
>  <compound>
Cc1nn(CNc2ccccc2C(F)(F)F)c(=S)n1/N=C/c1cccc2cccnc12

>  <readout qualifier>
>

>  <TGI / µM>
100

$$$$
>  <compound>
N#C/C(=C\c1cc(O)cc(O)c1)C(N)=O

>  <readout qualifier>
>

>  <TGI / µM>
100

$$$$
>  <compound>
CN=C1Nc2ccccc2C(=O)N2CSCC12 (stereo unspecified)

>  <readout qualifier>
>

>  <TGI / µM>
100

$$$$
>  <compound>
C[C@H](C1CC(C)(O)C(C)(O)C(O)O1)[C@H]1CC[C@H]2[C@@H]3[C@@H]4O[C@@H]4[C@@]4(O)CC=CC(=O)[C@]4(C)[C@H]3CC[C@]12C (stereo partly specified)

>  <readout qualifier>
>

>  <TGI / µM>
50

$$$$
>  <compound>
CC1(C)OC2C(COC(c3ccccc3)(c3ccccc3)c3ccccc3)OC(c3c[nH]c4c(N)ncnc34)C2O1 (stereo unspecified)

>  <readout qualifier>
=

>  <TGI / µM>
4.21

$$$$
>  <compound>
CN[C@H]1CN(c2ccc3c(=O)c(C(=O)O)cn(-c4nccs4)c3n2)C[C@@H]1OC

>  <readout qualifier>
=

>  <TGI / µM>
1.95

$$$$
>  <compound>
CC(=O)Nc1ccc(/C=C/C(=O)c2sc(-c3cccnc3)nc2C)cc1

>  <readout qualifier>
>

>  <TGI / µM>
100

$$$$
>  <compound>
Fc1ccc(-c2c(-c3ccncc3)nc3n2CCS3)cc1

>  <readout qualifier>
>

>  <TGI / µM>
25

$$$$
>  <compound>
CNC(=O)c1ccc(N2C(=S)N(c3cnc(C#N)c(C(F)(F)F)c3)C(=O)C23CCC3)cc1F

>  <readout qualifier>
>

>  <TGI / µM>
100

$$$$
>  <compound>
NC(=O)NNC(=O)CCn1[nH]c(=O)c(Cl)c(Cl)c1=O

>  <readout qualifier>
>

>  <TGI / µM>
100

$$$$
>  <compound>
O=C1NC(=C(Cl)Cl)/C(=N/S(=O)(=O)N2CCCCC2)N1

>  <readout qualifier>
=

>  <TGI / µM>
3.04

$$$$
>  <compound>
O=C1Nc2c(ccc(Cl)c2Cl)/C1=C/c1cc(Br)c(O)c(Br)c1

>  <readout qualifier>
=

>  <TGI / µM>
13.3

$$$$
>  <compound>
O=c1oc2ccc(I)cc2c(=O)n1-c1ccc(Br)cc1F

>  <readout qualifier>
=

>  <TGI / µM>
1.17

$$$$
>  <compound>
O=c1c2ccccc2sc2c(NCCCNCCO)nc3ccccc3c12

>  <readout qualifier>
=

>  <TGI / µM>
3.85

$$$$
>  <compound>
CC(=O)O[C@@H]1C2CCC3C(CC[C@@]4(C)C3CC[C@@H]4C(C)N(C)C)[C@@]2(C)CC[C@@H]1NC(=O)C=C(C)C (stereo partly specified)

>  <readout qualifier>
=

>  <TGI / µM>
3.96

$$$$
>  <compound>
CC(=O)c1nc2ccccc2n1C(C)C(=O)c1ccccc1 (stereo unspecified)

>  <readout qualifier>
>

>  <TGI / µM>
100

$$$$
>  <compound>
CCOC(=O)C1=CCCC[C@H]1S(=O)(=O)Nc1ccc(F)cc1Cl

>  <readout qualifier>
=

>  <TGI / µM>
72.7

$$$$

====

System: OVCAR-3 ovarian
test details: NCI tumour cell line growth inhibition, 48 h
Examples of compounds with documented TGI follow.

>  <compound>
COc1ccc(C2SC(N)=Nc3c2c(C)nn3C(=O)c2ccccc2O)cc1OC (stereo not given)

>  <readout qualifier>
>

>  <TGI / µM>
10

$$$$
>  <compound>
N#CC12C(=O)NC(=O)C1(C#N)C1C=CC2CC1 (stereo not given)

>  <readout qualifier>
>

>  <TGI / µM>
100

$$$$
>  <compound>
CN[C@H]1CN(c2ccc3c(=O)c(C(=O)O)cn(-c4nccs4)c3n2)C[C@@H]1OC

>  <readout qualifier>
=

>  <TGI / µM>
6.48

$$$$
>  <compound>
O=C(C(=O)c1cc2ccccc2[nH]1)c1cc2ccccc2[nH]1

>  <readout qualifier>
=

>  <TGI / µM>
95.7

$$$$
>  <compound>
CCOC(=O)c1nc2cc(C(F)(F)F)ccc2nc1Oc1ccc(C#N)cc1

>  <readout qualifier>
>

>  <TGI / µM>
100

$$$$

====

Tested on: OVCAR-4 ovarian
test details: NCI tumour cell line growth inhibition, 48 h
Where a SMILES comes first, the peptide text is derived from it. The star is where a group is joined. Fmoc = O=C(OCC1c2ccccc2-c2ccccc21)*; OtBu = CC(C)(C)O*
Parameter TGI: see the listing below.

>  <compound>
C/C=C(\C)c1cc(=O)c2c(C)cc3c(c2o1)C(=O)c1c(O)c(C2CC(C)(N(C)C)C(OC(C)=O)C(C)O2)cc(C2CC(N(C)C)C(O)C(C)O2)c1C3=O (centres undefined)

>  <readout qualifier>
=

>  <TGI, µM>
10.2

$$$$
>  <compound>
CC(C)C(NC(=O)OCC1c2ccccc2-c2ccccc21)C(=O)NC(CCC(=O)OC(C)(C)C)C(=O)OC(C)(C)C (centres undefined) (Fmoc-Val-Glu(OtBu)-OtBu; configuration not given here)

>  <readout qualifier>
>

>  <TGI, µM>
100

$$$$
>  <compound>
COc1ccccc1/C=C/c1ccnc2ccccc12

>  <readout qualifier>
=

>  <TGI, µM>
25.4

$$$$
>  <compound>
COc1ccc2c(c1)Cc1c(NCCN(C)C)ccc(C(=O)NCCCN(C)CCCNC(=O)c3ccc(NCCN(C)C)c4c3Nc3ccc(OC)cc3C4)c1N2

>  <readout qualifier>
=

>  <TGI, µM>
0.448

$$$$

====

Tested on: RXF 393 renal
test details: NCI tumour cell line growth inhibition, 48 h
metric: log10 TGI (log10 of the value in µM)

>  <compound>
O=c1c2ccccc2sc2c(NCCCNCCO)nc3ccccc3c12

>  <experimental value>
0.55

$$$$
>  <compound>
O=C1NC(=C(Cl)Cl)/C(=N/S(=O)(=O)N2CCCCC2)N1

>  <experimental value>
0.53

$$$$
>  <compound>
Nc1nc(/C=C\c2ccc([N+](=O)[O-])s2)nc(N2CCN(c3ccccc3)CC2)n1

>  <experimental value>
1.57

$$$$
>  <compound>
Cc1ccc(O)c(C(c2cccc(C(c3cc(C)ccc3O)c3cc(C)ccc3O)c2)c2cc(C)ccc2O)c1

>  <experimental value>
0.51

$$$$
>  <compound>
Cc1nc([N+](=O)[O-])cn1-c1nc2ccccn2c1[N+](=O)[O-]

>  <experimental value>
1.65

$$$$
>  <compound>
COc1ccc(C2(Cl)c3ccccc3N(c3ccccc3)c3ccccc32)cc1

>  <experimental value>
0.41

$$$$
>  <compound>
COc1ccc2c(c1)Cc1c(NCCN(C)C)ccc(C(=O)NCCCN(C)CCCNC(=O)c3ccc(NCCN(C)C)c4c3Nc3ccc(OC)cc3C4)c1N2

>  <experimental value>
0.27

$$$$
>  <compound>
Cc1c2ccccc2c(C2C3C(=O)N(c4ccc(Br)cc4)C(=O)C3ON2C(C(N)=O)c2ccccc2)c2ccccc12 (stereo not given)

>  <experimental value>
1.57

$$$$
